This collection of values is drawn from ChEMBL document CHEMBL3112490.

Entries and their measured IC50 follow.
# target: Cholinesterase (Equus caballus, UniProt P81908)
# Sequence (P81908 whole entry): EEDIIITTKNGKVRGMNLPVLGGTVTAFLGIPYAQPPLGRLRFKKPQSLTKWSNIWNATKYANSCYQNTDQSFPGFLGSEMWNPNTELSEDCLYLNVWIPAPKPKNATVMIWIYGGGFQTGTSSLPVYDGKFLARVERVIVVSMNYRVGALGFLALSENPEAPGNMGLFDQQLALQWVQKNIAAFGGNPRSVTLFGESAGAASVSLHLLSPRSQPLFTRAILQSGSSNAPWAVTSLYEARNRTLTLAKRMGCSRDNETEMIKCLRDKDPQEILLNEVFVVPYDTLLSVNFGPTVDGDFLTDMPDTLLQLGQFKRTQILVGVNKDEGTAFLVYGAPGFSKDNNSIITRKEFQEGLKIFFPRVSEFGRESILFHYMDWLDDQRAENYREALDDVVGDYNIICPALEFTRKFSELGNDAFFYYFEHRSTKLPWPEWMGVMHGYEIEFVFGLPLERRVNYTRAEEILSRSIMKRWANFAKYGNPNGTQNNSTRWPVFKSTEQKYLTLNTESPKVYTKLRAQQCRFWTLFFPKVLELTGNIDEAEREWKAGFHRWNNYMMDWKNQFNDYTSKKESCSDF
# method summary: Inhibition of equine serum BChE using S-butyrylthiocholine chloride as substrate preincubated for 15 mins followed by substrate addition by Ellman's method
Give your result in µM as a bare value.

Here are 2 molecules together with their reported answers.
CN1CC[C@@H](C(=O)N2C/C(=C\c3ccc(F)cc3)C(=O)[C@@]3(C2)[C@H](c2ccc(F)cc2)CN(C)[C@]32C(=O)Nc3ccccc32)[C@@]12C(=O)Nc1ccccc12 (racemic) :: 7.82
CN1CC[C@@H](C(=O)N2C/C(=C\c3cccc4ccccc34)C(=O)[C@@]3(C2)[C@H](c2cccc4ccccc24)CN(C)[C@]32C(=O)Nc3ccccc32)[C@@]12C(=O)Nc1ccccc12 (racemic) :: 19.1

Problem: Given the molecule COc1ccccc1/C=C1\CN(C(=O)[C@@H]2CCN(C)[C@]23C(=O)Nc2ccccc23)C[C@]2(C1=O)[C@H](c1ccccc1OC)CN(C)[C@]21C(=O)Nc2ccccc21 (racemic) , write its reported IC50.
Solution: 10.4

---

Endpoint: pIC50. System: Acetylcholinesterase (Homo sapiens). Items follow.
In simple prose, pIC50 is minus the logarithm base ten of a concentration in moles per litre.

C=CC(=O)N1C/C(=C\c2cccc3ccccc23)C(=O)[C@@]2(C1)[C@H](c1cccc3ccccc13)CN(C)[C@]21C(=O)Nc2ccccc21 (racemic) :: 5.12

Problem: Look up and report pIC50, with Acetylcholinesterase (Homo sapiens) as system, for CN1CC[C@@H](C(=O)N2C/C(=C\c3ccccc3Cl)C(=O)[C@@]3(C2)[C@H](c2ccccc2Cl)CN(C)[C@]32C(=O)Nc3ccccc32)[C@@]12C(=O)Nc1ccccc12 (racemic)
Solution: 5.28

Problem: System Acetylcholinesterase (Homo sapiens). Read-out pIC50. Item CN1CC[C@@H](C(=O)N2C/C(=C\c3ccccc3)C(=O)[C@@]3(C2)[C@H](c2ccccc2)CN(C)[C@]32C(=O)Nc3ccccc32)[C@@]12C(=O)Nc1ccccc12 (racemic) . Report value.
Solution: 5.58

---

# target: Cholinesterase (Equus caballus, UniProt P81908)
# method summary: Mixed-type inhibition of equine serum BChE using S-butyrylthiocholine chloride as substrate by Dixon plot analysis
property: Ki (µM)
The figure you give is taken to be in µM; do not add the unit.

Problem: Tell me Ki reported for C=CC(=O)N1C/C(=C\c2ccccc2F)C(=O)[C@@]2(C1)[C@H](c1ccccc1F)CN(C)[C@]21C(=O)Nc2ccccc21 (racemic)
Solution: 6.76

---

# method summary: Selectivity ratio of IC50 for equine serum BChE to IC50 for AChE (unknown origin)
Recorded Ratio IC50 by entry
The reply should be a number, written without any unit.

Take a look at these entries with their results.
C=CC(=O)N1C/C(=C\c2ccc(C)cc2)C(=O)[C@@]2(C1)[C@H](c1ccc(C)cc1)CN(C)[C@]21C(=O)Nc2ccccc21 (racemic) :: 1.24
Cc1ccc(/C=C2\CN(C(=O)[C@@H]3CCN(C)[C@]34C(=O)Nc3ccccc34)C[C@]3(C2=O)[C@H](c2ccc(C)cc2)CN(C)[C@]32C(=O)Nc3ccccc32)cc1 (racemic) :: 1.47
C=CC(=O)N1C/C(=C\c2cccc3ccccc23)C(=O)[C@@]2(C1)[C@H](c1cccc3ccccc13)CN(C)[C@]21C(=O)Nc2ccccc21 (racemic) :: 1.17
CN1CC[C@@H](C(=O)N2C/C(=C\c3cccc([N+](=O)[O-])c3)C(=O)[C@@]3(C2)[C@H](c2cccc([N+](=O)[O-])c2)CN(C)[C@]32C(=O)Nc3ccccc32)[C@@]12C(=O)Nc1ccccc12 (racemic) :: 5

Consider now this further compound.
Problem: Note Ratio IC50 for the compound shown: CN1CC[C@@H](C(=O)N2C/C(=C\c3ccc(Cl)cc3)C(=O)[C@@]3(C2)[C@H](c2ccc(Cl)cc2)CN(C)[C@]32C(=O)Nc3ccccc32)[C@@]12C(=O)Nc1ccccc12 (racemic)
Solution: 1.54

---

Here's a batch of compounds along with measured IC50 for Acetylcholinesterase (Homo sapiens).
Quick note: give the figure in µM, leave out the unit.

Examples with answers:
C=CC(=O)N1C/C(=C\c2cccc([N+](=O)[O-])c2)C(=O)[C@@]2(C1)[C@H](c1cccc([N+](=O)[O-])c1)CN(C)[C@]21C(=O)Nc2ccccc21 (racemic) :: 5.34
C=CC(=O)N1C/C(=C\c2ccccc2C)C(=O)[C@@]2(C1)[C@H](c1ccccc1C)CN(C)[C@]21C(=O)Nc2ccccc21 (racemic) :: 3.97
C=CC(=O)N1C/C(=C\c2ccccc2)C(=O)[C@@]2(C1)[C@H](c1ccccc1)CN(C)[C@]21C(=O)Nc2ccccc21 (racemic) :: 8.74
CN1CC[C@@H](C(=O)N2C/C(=C\c3ccccc3F)C(=O)[C@@]3(C2)[C@H](c2ccccc2F)CN(C)[C@]32C(=O)Nc3ccccc32)[C@@]12C(=O)Nc1ccccc12 (racemic) :: 6.18
CN1CC[C@@H](C(=O)N2C/C(=C\c3cccc([N+](=O)[O-])c3)C(=O)[C@@]3(C2)[C@H](c2cccc([N+](=O)[O-])c2)CN(C)[C@]32C(=O)Nc3ccccc32)[C@@]12C(=O)Nc1ccccc12 (racemic) :: 2.47
C=CC(=O)N1C/C(=C\c2ccc(Cl)cc2Cl)C(=O)[C@@]2(C1)[C@H](c1ccc(Cl)cc1Cl)CN(C)[C@]21C(=O)Nc2ccccc21 (racemic) :: 6.14
CN1CC[C@@H](C(=O)N2C/C(=C\c3cccc4ccccc34)C(=O)[C@@]3(C2)[C@H](c2cccc4ccccc24)CN(C)[C@]32C(=O)Nc3ccccc32)[C@@]12C(=O)Nc1ccccc12 (racemic) :: 4.93
C=CC(=O)N1C/C(=C\c2ccccc2Cl)C(=O)[C@@]2(C1)[C@H](c1ccccc1Cl)CN(C)[C@]21C(=O)Nc2ccccc21 (racemic) :: 5.12

Problem: Item Cc1ccccc1/C=C1\CN(C(=O)[C@@H]2CCN(C)[C@]23C(=O)Nc2ccccc23)C[C@]2(C1=O)[C@H](c1ccccc1C)CN(C)[C@]21C(=O)Nc2ccccc21 (racemic) : provide IC50
Solution: 9.43

Problem: Report IC50 for C=CC(=O)N1C/C(=C\c2ccccc2F)C(=O)[C@@]2(C1)[C@H](c1ccccc1F)CN(C)[C@]21C(=O)Nc2ccccc21 (racemic)
Solution: 6.88

Problem: Report IC50 for C=CC(=O)N1C/C(=C\c2ccccc2OC)C(=O)[C@@]2(C1)[C@H](c1ccccc1OC)CN(C)[C@]21C(=O)Nc2ccccc21 (racemic)
Solution: 4.1

---

# method summary: Selectivity index, ratio of IC50 for AChE (unknown origin) to IC50 for equine serum BChE
criterion met means recorded Ratio IC50 is 0.3 or above; criterion not met means it is below 0.3.

Please review the following examples before continuing.
CN1CC[C@@H](C(=O)N2C/C(=C\c3cccc([N+](=O)[O-])c3)C(=O)[C@@]3(C2)[C@H](c2cccc([N+](=O)[O-])c2)CN(C)[C@]32C(=O)Nc3ccccc32)[C@@]12C(=O)Nc1ccccc12 (racemic) :: criterion not met
CN1CC[C@@H](C(=O)N2C/C(=C\c3ccc(Cl)cc3Cl)C(=O)[C@@]3(C2)[C@H](c2ccc(Cl)cc2Cl)CN(C)[C@]32C(=O)Nc3ccccc32)[C@@]12C(=O)Nc1ccccc12 (racemic) :: criterion not met
C=CC(=O)N1C/C(=C\c2ccccc2C)C(=O)[C@@]2(C1)[C@H](c1ccccc1C)CN(C)[C@]21C(=O)Nc2ccccc21 (racemic) :: criterion met

From here, focus on the item given below.
Problem: Please tell me: is the compound C=CC(=O)N1C/C(=C\c2ccccc2OC)C(=O)[C@@]2(C1)[C@H](c1ccccc1OC)CN(C)[C@]21C(=O)Nc2ccccc21 (racemic) at or over 0.3 in terms of Ratio IC50?
Solution: criterion met

---

# target: UniProt:P81908
# method summary: Inhibition of equine serum BChE using S-butyrylthiocholine chloride as substrate preincubated for 15 mins followed by substrate addition by Ellman's method
# pIC50 values compiled below
The value called pIC50 is obtained by taking minus log10 of the concentration in mol/L.

// worked examples, pIC50 included
C=CC(=O)N1C/C(=C\c2ccc(C)cc2)C(=O)[C@@]2(C1)[C@H](c1ccc(C)cc1)CN(C)[C@]21C(=O)Nc2ccccc21 (racemic) :: 5.03
C=CC(=O)N1C/C(=C\c2cccc3ccccc23)C(=O)[C@@]2(C1)[C@H](c1cccc3ccccc13)CN(C)[C@]21C(=O)Nc2ccccc21 (racemic) :: 5.05

Field: next compound
Problem: // Input: C=CC(=O)N1C/C(=C\c2ccccc2)C(=O)[C@@]2(C1)[C@H](c1ccccc1)CN(C)[C@]21C(=O)Nc2ccccc21 (racemic) . Output its pIC50 only.
Solution: 5.12

---

# target: Acetylcholinesterase (Homo sapiens, UniProt P22303)
# Sequence (P22303 whole entry): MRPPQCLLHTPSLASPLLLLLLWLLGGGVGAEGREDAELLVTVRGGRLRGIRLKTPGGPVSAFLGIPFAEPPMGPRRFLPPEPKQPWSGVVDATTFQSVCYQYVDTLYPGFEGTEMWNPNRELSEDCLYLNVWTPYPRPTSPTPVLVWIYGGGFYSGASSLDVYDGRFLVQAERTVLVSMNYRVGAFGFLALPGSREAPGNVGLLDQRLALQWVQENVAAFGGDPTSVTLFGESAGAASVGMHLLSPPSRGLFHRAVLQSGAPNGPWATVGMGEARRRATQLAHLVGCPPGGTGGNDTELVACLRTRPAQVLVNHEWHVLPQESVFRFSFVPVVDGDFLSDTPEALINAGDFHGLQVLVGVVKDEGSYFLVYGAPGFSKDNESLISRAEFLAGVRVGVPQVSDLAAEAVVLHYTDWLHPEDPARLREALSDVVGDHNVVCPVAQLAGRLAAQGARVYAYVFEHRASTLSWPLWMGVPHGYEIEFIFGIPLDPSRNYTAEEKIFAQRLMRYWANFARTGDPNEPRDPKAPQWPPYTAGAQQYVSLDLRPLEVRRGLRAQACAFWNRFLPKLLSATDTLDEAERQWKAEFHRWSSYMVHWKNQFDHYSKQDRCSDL
property: pIC50
Would you please state pIC50, meaning minus log10 of the concentration in mol/L, as a bare number?

Cc1ccc(/C=C2\CN(C(=O)[C@@H]3CCN(C)[C@]34C(=O)Nc3ccccc34)C[C@]3(C2=O)[C@H](c2ccc(C)cc2)CN(C)[C@]32C(=O)Nc3ccccc32)cc1 (racemic) :: 5.12
COc1ccccc1/C=C1\CN(C(=O)[C@@H]2CCN(C)[C@]23C(=O)Nc2ccccc23)C[C@]2(C1=O)[C@H](c1ccccc1OC)CN(C)[C@]21C(=O)Nc2ccccc21 (racemic) :: 5.33

Problem: Write down pIC50 measured for item C=CC(=O)N1C/C(=C\c2ccc(Cl)cc2)C(=O)[C@@]2(C1)[C@H](c1ccc(Cl)cc1)CN(C)[C@]21C(=O)Nc2ccccc21 (racemic)
Solution: 5.08

Problem: Return value of pIC50 for input C=CC(=O)N1C/C(=C\c2ccc(F)cc2)C(=O)[C@@]2(C1)[C@H](c1ccc(F)cc1)CN(C)[C@]21C(=O)Nc2ccccc21 (racemic) , no commentary.
Solution: 5.11

Problem: Name the recorded pIC50 of the compound listed here: CN1CC[C@@H](C(=O)N2C/C(=C\c3ccc(Cl)cc3)C(=O)[C@@]3(C2)[C@H](c2ccc(Cl)cc2)CN(C)[C@]32C(=O)Nc3ccccc32)[C@@]12C(=O)Nc1ccccc12 (racemic)
Solution: 5.21
